Assay: AUC (0 to infinity) in Wistar rat lung at 10 mg/kg, po by HPLC analysis
Assay type: ADME, organism-based
Design: dose 10 mg/kg, time infinity, route oral
reported_property: AUC(0-inf) (ng·h/mL)
Hi! Could you send only the number? It should be in ng·h/mL, unit omitted.

Ask: Given CCCCC1=NC2(CCCC2)C(=O)N1Cc1ccc2c(ccn2-c2ccccc2-c2nnn[nH]2)c1 , state its recorded AUC(0-inf).
Reply: 745

###

Assay: Half life in Wistar rat kidney at 30 mg/kg, po by HPLC analysis
Format: ADME, organism-based
reported_property: half-life (h)
Hi! Could you send only the number? It should be in h, unit omitted.

Ask: Given CCCCC1=NC2(CCCC2)C(=O)N1Cc1ccc2c(ccn2-c2ccccc2-c2nnn[nH]2)c1 , state its recorded half-life.
Reply: 22.4

###

Assay: AUC (0 to 72 hrs) in Wistar rat brain at 15 mg/kg, po by HPLC analysis
Assay type: ADME, organism-based
Set-up: dose 15 mg/kg, time < 72 hr, route oral
reported_property: AUC(0-t) at 72 h (ng·h/mL)
Hi! Could you send only the number? It should be in ng·h/mL, unit omitted.

Ask: Given CCCCC1=NC2(CCCC2)C(=O)N1Cc1ccc2c(ccn2-c2ccccc2-c2nnn[nH]2)c1 , state its recorded AUC(0-t) at 72 h.
Reply: 1180

###

Assay: Half life in Wistar rat spleen at 30 mg/kg, po by HPLC analysis
Type: ADME, organism-based
reported_property: half-life
Answer shape: numeric part, then the unit.

Ask: Given CCCCC1=NC2(CCCC2)C(=O)N1Cc1ccc2c(ccn2-c2ccccc2-c2nnn[nH]2)c1 , state its recorded half-life.
Reply: 13.4 h

###

Experiment: MRT (0 to 72 hrs) in Wistar rat brain at 30 mg/kg, po by HPLC analysis
Format: ADME, organism-based
reported_property: MRT last (h)
Hi! Could you send only the number? It should be in h, unit omitted.

Ask: Given CCCCC1=NC2(CCCC2)C(=O)N1Cc1ccc2c(ccn2-c2ccccc2-c2nnn[nH]2)c1 , state its recorded MRT last.
Reply: 9.03

###

Experiment: Cmax in Wistar rat lung at 10 mg/kg, po by HPLC analysis
Format: ADME, organism-based
Design: dose 10 mg/kg, route oral
reported_property: Cmax (ng/mL)
Hi! Could you send only the number? It should be in ng/mL, unit omitted.

Ask: Given CCCCC1=NC2(CCCC2)C(=O)N1Cc1ccc2c(ccn2-c2ccccc2-c2nnn[nH]2)c1 , state its recorded Cmax.
Reply: 62.1

###

Assay: Tmax in Wistar rat plasma at 10 mg/kg, po by HPLC analysis
Assay type: ADME, organism-based
reported_property: Tmax (h)
Hi! Could you send only the number? It should be in h, unit omitted.

Ask: Given CCCCC1=NC2(CCCC2)C(=O)N1Cc1ccc2c(ccn2-c2ccccc2-c2nnn[nH]2)c1 , state its recorded Tmax.
Reply: 5.67

###

Experiment: MRT (0 to 72 hrs) in Wistar rat lung at 15 mg/kg, po by HPLC analysis
Type: ADME, organism-based
reported_property: MRT last (h)
Hi! Could you send only the number? It should be in h, unit omitted.

Ask: Given CCCCC1=NC2(CCCC2)C(=O)N1Cc1ccc2c(ccn2-c2ccccc2-c2nnn[nH]2)c1 , state its recorded MRT last.
Reply: 6.64

The measurements presented in this section are drawn from ChEMBL document CHEMBL3872205.
